measurementTarget: NTF2 domain of G3BP2 (Homo sapiens, UniProt Q9UN86)
Sequence (Q9UN86 11-133 limits assumed): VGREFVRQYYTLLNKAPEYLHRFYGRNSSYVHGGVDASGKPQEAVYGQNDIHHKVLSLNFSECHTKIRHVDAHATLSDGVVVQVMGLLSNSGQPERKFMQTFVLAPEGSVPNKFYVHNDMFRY
Peptide text beside a SMILES is read from it.
recordedMetric: pKd
Please note pKd is a logarithmic value: minus log10 of concentration in mol/L. Answer with that number alone.

// query What does the data say about its pKd? Entry: CC(=O)N1CCC[C@H]1C(=O)N[C@@H](CO)C(=O)N[C@@H](CCCCN)C(=O)N[C@@H](CC(C)C)C(=O)N1CCC[C@H]1C(=O)N[C@H](C(=O)N[C@@H](Cc1ccccc1)C(=O)NCC(=O)N[C@@H](C)C(=O)N1CCC[C@H]1C(=O)N[C@@H](CCC(=O)O)C(=O)N[C@@H](CCC(N)=O)C(=O)N[C@@H](CC(C)C)C(=O)N[C@H](C(=O)N[C@@H](CC(=O)O)C(=O)N[C@@H](Cc1ccc(O)cc1)C(N)=O)C(C)C)[C@@H](C)O [TRIM25 400-414 Human] (Ac-PSKLPTFGAPEQLVDY-NH2)
// result 4.34

###

Peptide text beside a SMILES is read from it.
# IC50 per entry for NTF2 domain of G3BP2 (Homo sapiens)
Answer format: numeric, µM implied, no suffix.

// query Hi! What's the reported IC50 for CC[C@H](C)[C@H](NC(=O)[C@H](CCCNC(=N)N)NC(=O)[C@@H]1CCCN1C(=O)[C@H](C)NC(C)=O)C(=O)N[C@H](C(=O)N[C@@H](Cc1ccccc1)C(=O)NCC(=O)NCC(=O)N1CCC[C@H]1C(=O)N[C@@H](CO)C(=O)N[C@@H](CC(=O)O)C(=O)N[C@@H](CO)C(=O)N[C@H](C(=O)NCC(=O)N[C@@H](CO)C(=O)N[C@@H](Cc1ccc(O)cc1)C(N)=O)[C@@H](C)O)[C@@H](C)O [N 12-26 Sars-CoV2] (Ac-APRITFGGPSDSTGSY-NH2) on NTF2 domain of G3BP2 (Homo sapiens)?
// result 10

// query Give NTF2 domain of G3BP2 (Homo sapiens) IC50 for CC(=O)N1CCC[C@H]1C(=O)N[C@@H](CO)C(=O)N[C@@H](CCCCN)C(=O)N[C@@H](CC(C)C)C(=O)N1CCC[C@H]1C(=O)N[C@H](C(=O)N[C@@H](Cc1ccccc1)C(=O)NCC(=O)N[C@@H](C)C(=O)N1CCC[C@H]1C(=O)N[C@@H](CCC(=O)O)C(=O)N[C@@H](CCC(N)=O)C(=O)N[C@@H](CC(C)C)C(=O)N[C@H](C(=O)N[C@@H](CC(=O)O)C(=O)N[C@@H](Cc1ccc(O)cc1)C(N)=O)C(C)C)[C@@H](C)O [TRIM25 400-414 Human] (Ac-PSKLPTFGAPEQLVDY-NH2)
// result 53
